# Subject of test: human DLL3 endogenously expressed on SHP77 and NCI-H82 cells (human) (UniProt Q9NYJ7)
# Sequence (Q9NYJ7 27-618): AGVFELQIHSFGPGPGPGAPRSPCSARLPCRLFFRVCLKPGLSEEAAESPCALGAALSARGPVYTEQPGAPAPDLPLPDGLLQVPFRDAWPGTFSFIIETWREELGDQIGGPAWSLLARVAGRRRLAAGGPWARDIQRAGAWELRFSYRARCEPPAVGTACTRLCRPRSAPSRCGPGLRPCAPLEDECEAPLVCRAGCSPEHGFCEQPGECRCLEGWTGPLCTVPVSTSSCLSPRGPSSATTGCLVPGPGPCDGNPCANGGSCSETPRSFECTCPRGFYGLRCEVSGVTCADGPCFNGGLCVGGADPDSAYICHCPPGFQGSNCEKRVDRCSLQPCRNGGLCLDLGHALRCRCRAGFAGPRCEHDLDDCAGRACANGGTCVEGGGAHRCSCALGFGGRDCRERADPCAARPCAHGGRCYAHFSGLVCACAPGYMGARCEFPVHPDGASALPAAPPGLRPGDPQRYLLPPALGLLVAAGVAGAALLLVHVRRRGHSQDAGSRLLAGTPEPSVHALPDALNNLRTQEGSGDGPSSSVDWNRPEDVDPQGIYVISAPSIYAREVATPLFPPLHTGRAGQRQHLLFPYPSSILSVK
# Protocol text: FACS SHP77 cells, 0.16 nM
As shown below, each of these binders has a reported MFI value.
Report only the number, with the unit MFI understood.

Binder	Units text	MFI
mab002 scFv-hFc (Fc fusion, not shown: small tags and cut ends; a dimerising Fc or GST) scFv (part 1 of 2): QIVLTQSPAIMSASPGEKVTMTCSARSSVSYMQWYQQKSGTSPKRWIYDTSKLASGVPARFSGSGSGTSYSLTISTMEAEDAATYYCQQWSSDPPTFGGGTKLEIK scFv (part 2 of 2): QIQLVQSGPELKKPGETVKISCKASGYTFTNYGMNWLKQAPGKGLKWMGWINTYTGESTYADDFKGRFAFSLETSASTVYLQINNLKNEDMATYFCARMGDGYYDFTMDYWGQGTSVTVSS	MFI	518
mab010 scFv-hFc (Fc fusion, not shown: small tags and cut ends; a dimerising Fc or GST) scFv (part 1 of 2): DIQMTQSPASLSVSVGETVTITCRASENINSNLAWYQQKQGKSPQLLVYAATNLADGVPSRFSGSGSGTQFSLKISGLQSEDFGSYYCQHFWGLPWTFGGGTKLEIR scFv (part 2 of 2): QVQLQQSGAELARPGASMKLSCKASGYTFTSYGISWVKQITGQGLEWIGEIFPRSGNTYDNENFRGKATLTADKSSSTAYLEVRSLTSEDSAVYFCARTTVFAPYYFDYWGQGTTLTVSS	MFI	523
mab007 scFv-hFc (Fc fusion, not shown: small tags and cut ends; a dimerising Fc or GST) scFv (part 1 of 2): DVQITQSPSYLAASPGETITINCRASTSISKYLAWYQERPGKTNKLLIYSGSTLQSGIPSRFRGSGSGTDFTLTISSLEPEDFAMYYCQQHHVYPYTFGGGTKLEIK scFv (part 2 of 2): QVQLQQPGAELVRPGTSVKLSCKASGYTFTSYWMHWVKQRPGQGLEWIGVIDPSDSLANYNQEFKGKATLTVDTSSSTAYMQLSSLTSEDSAVYYCARDSTVVAPMDYWGQGTSVTVSS	MFI	406
mab003 scFv-hFc (Fc fusion, part only; not given: VL-VH linker and human IgG1 Fc, not shown: another chain or arm of the molecule; a dimerising Fc or GST; small tags and cut ends) scFv (part 1 of 2): DVQITQSPSYLAASPGETITINCRASKSISKYLAWYQEKPGKTNKLLIYSGSTLHSGIPSRFSGSGSGTDFTLTISSLEPEDFAIYYCQQHNEYPLTFGGGTKLELK scFv (part 2 of 2): QVQLQQSGTELMKPGASVKLSCKATGYTFTGNWIEWVKQRPGHGLEWIGEILPGTGSTQYNEKFKGKATFTADPSSNTAYMQLSSLTTEDSAIYYCARWGSTVVAYDYWGQGTTLTVSS	MFI	566

Lab note: next binder to report on.
INPUT: Report MFI for mab005 scFv-hFc (Fc fusion, not shown: small tags and cut ends; a dimerising Fc or GST) scFv (part 1 of 2): DIVLTQSPATLSVTPGDSVSLSCRASQSVSNDLHWYQQKSHESPRLLIKYASQSISGIPSRFSGSGSGTDFTLTINSVETEDFGMYFCQQSNNWPYTFGGGTKLEMK scFv (part 2 of 2): QVQLQQSGAELMKPGASVTLSCKATGYTLPGYWIEWVKQRPGHGLEWIGEILPGSSSANYNEKFKGKATFTADTSSNTAYMQLSSLTTEDSAIYYCASTYGTSLDYWGQGTTLTVSS please.
OUTPUT: 287
